Test system: SpTbr T-box DNA-binding domain (GST fusion);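 also: protein at 200 nM in PBS on universal double-stranded arrays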
Sequence: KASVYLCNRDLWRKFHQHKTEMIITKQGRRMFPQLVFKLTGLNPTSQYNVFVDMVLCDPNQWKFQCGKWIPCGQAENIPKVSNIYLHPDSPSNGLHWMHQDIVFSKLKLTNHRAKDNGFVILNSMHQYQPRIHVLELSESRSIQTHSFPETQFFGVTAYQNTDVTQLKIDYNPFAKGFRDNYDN
Test: PBM E-score of 8-mer (E-score (dimensionless, -0.5 to 0.5)); higher = stronger binding preference
Settings: the construct has about 5 more residues each side
Whole data set: some 33,000 sequences, median “E-score (dimensionless, -0.5 to 0.5)” near -0.046, cut for the highest 2% near 0.36. This excerpt belongs to a sample that is enriched for the highest values.
Would you mind labelling by PBM E-score of 8-mer? At or over 0.2 is yes (1), under is no (0).

> print(dat)
   sequence.code  qualitative.label
1       ACTAACAA             no (0)
2       ACACGTGT            yes (1)
3       CTAAGGAA             no (0)
4       TACCTTGA             no (0)
5       CCGGTGTC             no (0)
6       AGTAGGAG             no (0)
7       AACCTTGC             no (0)
8       AACACCCC            yes (1)
9       AGGGTGAT             no (0)

====

Test system: SpTbr T-box DNA-binding domain (GST fusion);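 also: protein at 200 nM in PBS on universal double-stranded arrays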
Sequence: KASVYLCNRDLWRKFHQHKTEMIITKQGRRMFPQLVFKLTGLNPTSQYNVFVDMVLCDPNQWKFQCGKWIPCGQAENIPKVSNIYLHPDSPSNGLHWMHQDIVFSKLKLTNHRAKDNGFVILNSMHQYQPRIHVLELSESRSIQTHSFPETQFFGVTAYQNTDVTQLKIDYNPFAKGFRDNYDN
Assay: PBM E-score of 8-mer (E-score (dimensionless, -0.5 to 0.5)); Tbr is Tbrain of the sea star Patiria miniata (Pm) or the sea urchin Strongylocentrotus purpuratus (Sp); higher = stronger binding preference
Conditions: target sequence: T-box / the construct has about 5 more residues each side
Whole data set: some 33,000 sequences, median “E-score (dimensionless, -0.5 to 0.5)” near -0.046, cut for the highest 2% near 0.36. The full list was thinned out, with the highest values kept by preference.
Would you mind labelling by PBM E-score of 8-mer? At or over 0.2 is Criterion met, under is Criterion not met.

> print(dat)
   sequence.code  qualitative.label
1       CCACCTGG  Criterion not met
2       AAAAGGTT  Criterion not met
3       AAGGTGAG      Criterion met
4       CCACCTTA      Criterion met
5       AGACAGCG  Criterion not met
6       GCACCTGC      Criterion met

This collection of values is drawn from the supplement of paper PMC4166925.
